// melting point lookup, one value per entry

1. O=C(O)c1nc(C2CC2)n(-c2ccccc2Cl)n1 ... 162 to 164 °C
2. O=C(Nc1ccccc1C(=O)O)c1ccccc1 ... 178 to 182 °C
3. NS(=O)(=O)c1ccc(OCC(=O)O)c(F)c1 ... 177 to 179 °C

Read off the recorded melting point for CN(Cc1ccccc1)C(=O)c1ccccc1C(=O)O
153 to 155 °C

====

Catalogue of melting point readings, one per entry.

1) COc1ccc(-c2n[nH]c(=O)c3ccccc23)cc1F ... 269 to 271 °C
2) Cc1ccc(S(=O)(=O)C(C#N)c2nc3ccccc3nc2Cl)cc1 (configuration not stated) ... 105 to 107 °C
3) CC(C)(C)OC(=O)NCc1nnn[nH]1 ... 153 to 155 °C
4) [N-]=[N+]=NC(C(N)=O)c1ccc(F)cc1 (configuration not stated) ... 127 to 129 °C
5) O=C(O)C1CCCCS1(=O)=O (configuration not stated) ... 166 to 168 °C

Kindly indicate its recorded melting point. Item: NCCc1nc2ccccc2[nH]1
215 to 230 °C

Supply recorded melting point for Clc1ccc2nnc(C3CC3)n2n1 here.
117 to 119 °C

Please give measured melting point of the following entry: Cc1cccc([N+](=O)[O-])c1C(=O)n1ccnc1
104 to 106 °C

====

Endpoint name: melting point

Completed entries (count: 4):
1) CCOc1cccc(C=CC(=O)O)c1OC1CCCCC1 ... 137 to 139 °C
2) O=C(O)c1sccc1S(=O)(=O)N1CCCCC1CCO (configuration not stated) ... 121 to 123 °C
3) O=S(=O)(Cl)c1ccc2c(c1)S(=O)(=O)CC2 ... 128 to 130 °C
4) Nc1ccc(Cl)c(S(N)(=O)=O)c1 ... 161 to 163 °C

For Nc1ncn(-c2ccccn2)n1 , write its melting point.
174 to 176 °C

Supply melting point value. Item: O=C(O)c1ccccc1NS(=O)(=O)c1cccc(C(F)(F)F)c1
157 to 159 °C

Note down melting point recorded for CC(=O)NCCc1ccc(C(C)=O)cc1
94 to 96 °C

====

Listed here are compounds together with their documented melting point.

1. O=C(O)CCCn1c(=O)oc2ccccc21 ... 141 to 143 °C
2. COC(=O)C(Cc1c[nH]cn1)NC(C)=O (stereo unspecified) ... 116 to 118 °C
3. S=c1[nH]nnn1-c1ccc(Br)cc1 ... 162 to 164 °C
4. Cc1cc(C=O)nc(N2CCCCC2)n1 ... 49 to 51 °C
5. Nc1nc(-c2sccc2Br)cs1 ... 151 to 153 °C

For Cc1cc(OCC(=O)O)ccc1C(C)C , write its melting point.
117 to 121 °C

Quickly give me recorded melting point for COc1cc(C)ccc1Oc1ccc(F)cc1N
60 to 62 °C

Specify measured melting point for NS(=O)(=O)c1ccc(Sc2ccccc2C(=O)O)cc1 .
226 to 228 °C

Give the measured melting point for CSCCC(NC(N)=O)C(=O)O (stereo unspecified)
141 to 143 °C

Please look at this compound and report its melting point: Cc1nn(-c2ccc(Br)cc2)c(C)c1C(=O)O
231 to 233 °C

====

Below, each entry is listed with its recorded melting point.

Field: example entries. Status: answers known.
1. O=C(O)c1ccccc1OCc1ccc(Cl)cc1 ... 85 to 87 °C
2. Cc1cc(N2CCCC(N)C2=O)n(C)n1 (configuration not stated) ... 88 to 90 °C
3. Cc1ccc(-n2nc(C(C)(C)C)cc2N)cc1 ... 116 to 118 °C
4. CNC(=O)CCCl ... 63 to 65 °C
5. NC(=O)c1c(-c2ccc(C(F)(F)F)cc2)csc1N ... 158 to 160 °C

Respond only with melting point recorded for CN(C)C=CC(=O)C(F)(F)F
52 to 54 °C

Recall and state the measured melting point for Cc1cc(C)cc(-n2nc(C)cc2N)c1 .
95 to 97 °C

Provide only the value of recorded melting point for CC(C)c1noc2nc(C3CC3)cc(C(=O)O)c12
178 to 180 °C

In one line, give reported melting point of the entry O=Cc1cc(-c2ccccc2)cs1 .
63 to 65 °C

Answer with the recorded melting point of CN(C)S(=O)(=O)c1ccc(F)c([N+](=O)[O-])c1 only.
118 to 120 °C

Tell me measured melting point for CC1CN(c2ccc(N)cc2)CC(C)O1 (configuration not stated) please.
73 to 75 °C

Quickly give me recorded melting point for Clc1ccc(-c2nnc(CNC3CC3)o2)cc1
104 to 106 °C

Respond only with melting point recorded for Cc1ccoc1-c1nnc(CCl)o1
49 to 51 °C

# return recorded melting point for input Cc1ccc(C(=O)c2c(N)sc3c2CCC3)cc1F
177 to 179 °C

====

Quick list: melting point per entry.

Worked examples, 2 compounds total:
1. c1cc(-c2nnco2)ccn1 ... 119 to 121 °C
2. OCc1nc2cccnc2[nH]1 ... 210 to 212 °C

Assign melting point to the following record: CC(N)c1ccc(OCc2ccc(F)cc2)cc1 (centres undefined)
52 to 54 °C

Please indicate melting point recorded for Cc1nn2cccnc2c1C(=O)O
176 to 178 °C

Look up and report measured melting point for this entry: CC(=O)c1cncs1
64 to 66 °C

Give reported melting point value for NC(=O)C1CCN(C(=O)CCl)CC1
136 to 138 °C

Tell us which melting point value is on record for O=[N+]([O-])c1ccc(Br)cc1F
86 to 88 °C

Provide melting point value for the following compound: CN(C)c1nc(CC#N)nc(=N)[nH]1
139 to 141 °C

====

Listing of recorded melting point by entry.

Previously resolved entries follow.
1. ClCc1ccc(-c2nc3cccc(Cl)c3s2)cc1 ... 173 to 175 °C
2. CC(C)(C)c1ccc(-c2csc(N)n2)cc1 ... 127 to 129 °C
3. O=C(O)c1csc(-c2ccccc2F)n1 ... 159 to 161 °C
4. Cc1cc(C)cc(Oc2ccc(CN)cc2C)c1 ... 56 to 58 °C
5. CCOCCCNC(=O)CCl ... 25 to 27 °C
6. CSc1cc(C(=O)O)ccc1F ... 189 to 191 °C
7. COc1ccc(C=O)cc1Cl ... 56 to 58 °C
8. CC(C)(C(=O)O)c1cccc(C#N)c1 ... 91 to 93 °C

# evaluate next
Report measured melting point; entry is Ic1nnc[nH]1
196 to 198 °C

====

The entries below are paired with their reported melting point.

1. COC(=O)c1cc2c(Br)ccc(F)c2[nH]1 ... 189 to 191 °C
2. Sc1nnc(N2CCCC2)s1 ... 179 to 181 °C

For the compound CC(=O)c1ccc(S(C)(=O)=O)c(F)c1 , give its reported melting point.
103 to 105 °C

Name the recorded melting point of the compound listed here: O=C(O)C1CC2COCC(C1)C2=O (stereo not drawn)
196 to 198 °C

Respond only with melting point recorded for CC1CCCCN1C(=O)c1ccc(N)cc1Cl (stereo not drawn)
186 to 188 °C

Specify melting point for Fc1ccc(CNc2nnc(S)s2)cc1 and stop.
168 to 170 °C

Query melting point for COC(=O)c1c(F)cc(C#N)cc1F
111 to 113 °C

====

Let's look at some compounds and their measured melting point.

1. CN(C)C(=O)Cn1cc(C(=O)O)nn1 ... 199 to 201 °C
2. COc1ccc(NC(=O)C(C)Cl)cc1OC (configuration not stated) ... 109 to 111 °C
3. CC(C)(C)OC(=O)NC1CCN(CC(N)=S)CC1 ... 169 to 171 °C
4. CCC(C)(NC(=O)c1ccccc1)C(N)=S (configuration not stated) ... 162 to 164 °C

Write down melting point measured for item CC=Cc1ccc(OCC(=O)OC)c(OC)c1
68 to 70 °C

Quote melting point reported for Cc1c(C(=O)O)oc2c(Br)cc(Cl)cc12 please.
279 to 281 °C

Provide melting point value for the following compound: O=C(O)Cn1cnc([N+](=O)[O-])n1
187 to 189 °C

Look up and state reported melting point for CCCNC(=O)c1cccnc1Cl
63 to 65 °C

Dear colleague, please send me the reported melting point for CNC1CCCCNC1=O (configuration not stated) when you can.
234 to 236 °C

Supply melting point value. Item: CCS(=O)(=O)Nc1ccccc1C(=O)O
145 to 147 °C

Please give measured melting point of the following entry: CCc1nonc1N
69 to 71 °C

Give a short answer stating reported melting point for O=S(=O)(Cl)Cc1cc(-c2ccccc2)no1 .
115 to 117 °C

====

Endpoint name: melting point

1. Cc1cccc(Cn2[nH]ccc2=NC(=O)CCl)c1 ... 88 to 90 °C
2. CCOC(=O)c1c(CC(C)C)csc1NC(=O)CCl ... 98 to 100 °C
3. CC(O)C(NC(=O)C1CC1C)C(=O)O (configuration not stated) ... 138 to 140 °C
4. O=C(CCl)Nc1cccc(Oc2ccccc2)c1 ... 102 to 104 °C
5. O=C(O)c1cc2ccccc2nc1N1CCCC1 ... 169 to 171 °C

Tell me melting point reported for O=C(O)C1CCCCC1C(=O)N1CCCC1 (configuration not stated)
119 to 121 °C

Tell us which melting point value is on record for O=C(O)CN1CCCCC1=O
169 to 171 °C

Look up and state reported melting point for COC(=O)Nc1ccc(O)cc1
115 to 117 °C

Provide measured melting point value, entry: O=C(O)c1cc(Br)cc(Cl)c1O
207 to 209 °C

Quick one: give measured melting point for NS(=O)(=O)c1ccccc1I
161 to 163 °C

Return melting point for the following compound: COc1nc(C)ccc1C#N
84 to 86 °C

Could you please provide reported melting point for Nc1nc2cc(Cc3ccccc3)ccc2o1 ? Thanks!
151 to 153 °C

Find the measured melting point of N#CC1(NC(=O)CCl)CCCC1 and report it.
74 to 76 °C

Entry N#CCC(=O)Nc1ccc(S(N)(=O)=O)cc1 needs its melting point filled in; supply it.
215 to 217 °C

Determine from records and report melting point for O=C(c1ccsc1)N1CCNCC1
235 to 237 °C

Quote melting point reported for CC(C)CNC(=O)c1ccc(N)cc1Cl please.
100 to 102 °C

Provide measured melting point value, entry: Cc1nn(Cc2cccc(Br)c2)c(C)c1C(=O)O
174 to 176 °C

Provide melting point value for the following compound: CC(=O)Nc1cc(C(=O)CCl)ccc1O
188 to 190 °C

Give reported melting point value for Cc1c(Cl)cc(N)cc1Cl
55 to 57 °C

Tell me measured melting point for Nc1ncc(Br)cc1S(=O)(=O)Cl please.
129 to 131 °C

Each recorded value in this set is attributed to a melting point compilation (Tetko et al.).
